Assay: Apparent permeability from basolateral to apical side in human Caco2 cells at 10 uM incubated for 120 mins
Type: ADME, cell-based
Settings: Caco-2
Please provide measured Papp B→A at 2 h, 10 µM for the entries that follow.
Answers are plain numbers, in ×10⁻⁶ cm/s.

Go through the items and report each one's Papp B→A at 2 h, 10 µM.
1. Cc1ncsc1-c1ccc(CNC(=O)[C@@H]2C[C@@H](O)CN2C(=O)[C@@H](NC(=O)CCOCCOCCOCCOc2ccc(N3C(=S)N(c4ccc(C#N)c(C(F)(F)F)c4)C(=O)C3(C)C)cc2)C(C)(C)C)cc1
2. CC1(C)C(=O)N(c2ccc(C#N)c(C(F)(F)F)c2)C(=S)N1c1ccc(OCCOCCOCCOCCOc2cccc3c2C(=O)N(C2CCC(=O)NC2=O)C3=O)cc1 (configuration not stated)
3. Cc1ncsc1-c1ccc(CNC(=O)[C@@H]2C[C@@H](O)CN2C(=O)[C@@H](NC(=O)COCCCOCC(F)(F)C(F)(F)COc2ccc(N3C(=S)N(c4ccc(C#N)c(C(F)(F)F)c4)C(=O)C3(C)C)cc2)C(C)(C)C)cc1
4. Cc1ncsc1-c1ccc(CNC(=O)[C@@H]2C[C@@H](O)CN2C(=O)[C@@H](NC(=O)COCCCOCCCCCOc2ccc(N3C(=S)N(c4ccc(C#N)c(C(F)(F)F)c4)C(=O)C3(C)C)cc2)C(C)(C)C)cc1
5. Cc1ncsc1-c1ccc(CNC(=O)[C@@H]2C[C@@H](O)CN2C(=O)[C@@H](NC(=O)COCCCOCCCCOc2ccc(N3C(=S)N(c4ccc(C#N)c(C(F)(F)F)c4)C(=O)C3(C)C)cc2)C(C)(C)C)cc1
6. CC1(C)C(=O)N(c2ccc(C#N)c(C(F)(F)F)c2)C(=S)N1c1ccc(OCCOCCOCCOCCOC23CC4CC(CC(C4)C2)C3)cc1

Outgoing:
1: 2.6; 2: 14.1; 3: 0.33; 4: 0.24; 5: 1.4; 6: 0.22

This collection of values is drawn from ChEMBL document CHEMBL4619811.
